Recorded values, source patent US11731965B2.

- assay target: human recombinant 5-HT1A receptor (Homo sapiens)
- Sequence (P08908 1-422): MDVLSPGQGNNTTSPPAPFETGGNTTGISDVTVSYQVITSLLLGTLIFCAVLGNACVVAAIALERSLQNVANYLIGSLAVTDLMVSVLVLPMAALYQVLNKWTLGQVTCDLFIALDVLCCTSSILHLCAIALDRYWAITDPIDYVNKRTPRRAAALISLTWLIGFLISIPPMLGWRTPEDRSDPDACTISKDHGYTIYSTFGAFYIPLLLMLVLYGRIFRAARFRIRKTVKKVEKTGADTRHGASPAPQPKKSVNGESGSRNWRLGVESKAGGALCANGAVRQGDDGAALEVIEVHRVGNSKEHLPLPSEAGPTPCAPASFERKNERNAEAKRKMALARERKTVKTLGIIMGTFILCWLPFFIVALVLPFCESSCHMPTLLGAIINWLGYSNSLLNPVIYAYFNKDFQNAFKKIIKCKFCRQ
- procedure details: 5-HT1A agonistic activity test (LANCE cAMP, inhibition of cAMP production in HEK293 cells)
- run parameters: HEK293 cells expressing human recombinant 5-HT1A receptor; test concentration 0.1 nM to 10000 nM; read-out: 5-HT1A Agonistic Activity (EC50, nmol/L)
Structures can show the parent of a compound that is named as a salt.
property label: EC50 (nmol/L)
State the answer as a number, implicitly in nmol/L.

Worked examples follow.
## Input Name the reported EC50 value associated with the compound COc1cc2c(cc1OC)[C@@H]1Cc3ccc(OC)c(OC4CC4)c3CN1CC2 [Example 57, hydrochloride]
## Output 110

## Input Continue with COc1cc2c(cc1OC)[C@@H]1Cc3ccc(OC)c(CNC(C)=O)c3CN1CC2
## Output 1900

## Input Continue with COc1cc2c(cc1OC)[C@@H]1Cc3ccc(OC)c(C(C)=O)c3CN1CC2
## Output 238

Could you now consider this next compound?
## Input Name the reported EC50 value associated with the compound COc1cc2c(cc1C(N)=O)[C@@H]1Cc3ccc(OC)c(OC)c3CN1CC2
## Output 450
